The values you see were collected from patent US20120101093A1.

Test system: Aβ1-40 secreted from HEK293 cells stably expressing wildtype human APP695 protein (HEK-APPwt cells)
protocol: Aβ Cell Based Assay (Aβ1-40 secretion, ELISA)
settings: Homo sapiens, HEK293, 6 h, 6 hours incubation, reduction of Aβ1-40 secretion
# Lookup of reported EC50 keyed by entry
Entry format: amount then unit.

In the examples that follow, each entry is paired with its recorded EC50.
# compound, EC50
measured = [
    ("O=C(Nc1nc2cc(-c3ccc(F)c(C(F)(F)F)c3)ccc2[nH]1)c1cn2c(C(F)(F)F)cccc2n1", "2.36 µM"),
    ("Cc1cccc2nc(C(=O)Nc3nc4cc(OCc5ccccc5)ccc4[nH]3)cn12", "2.01 µM"),
    ("CNCc1cccc2nc(C(=O)Nc3nc4cc(-c5cccc(C(F)(F)F)c5)ccc4[nH]3)cn12", "2.48 µM"),
    ("CCOC(=O)c1cccc(-c2ccc3[nH]c(NC(=O)c4cn5c(C)cccc5n4)nc3c2)c1", "1.51 µM"),
    ("CN1CCN(Cc2cccc3nc(C(=O)Nc4nc5cc(-c6cccc(C(F)(F)F)c6)ccc5[nH]4)cn23)CC1", "2.53 µM"),
    ("CCOc1ccc(-c2ccc3[nH]c(NC(=O)c4cn5c(C)cccc5n4)nc3c2)cc1C", "2.95 µM"),
]

Q) Look up EC50: "O=C(Nc1nc2cc(-c3cccc(C(F)(F)F)c3)ccc2[nH]1)c1cn2cc(CN3CCOCC3)ccc2n1"
A) 0.54 µM

----------
System: Aβ1-40 secreted from HEK293 cells stably expressing wildtype human APP695 protein (HEK-APPwt cells)
protocol: Aβ Cell Based Assay (Aβ1-40 secretion, ELISA)
settings: Homo sapiens, HEK293, 6 h, 6 hours incubation, reduction of Aβ1-40 secretion
Lab note: anything with EC50 below 2 µM is marked true; values at 2 µM or higher are marked false.

Q) Is EC50 of "COCCNC(=O)c1cccc2nc(C(=O)Nc3nc4cc(-c5cc(F)cc(Cl)c5)ccc4[nH]3)cn12" strictly below 2 µM?
A) true

Q) Is EC50 of "O=C(Nc1nc2cc(-c3cccc(C(F)(F)F)c3)ccc2[nH]1)c1cn2c(CN3CCOCC3)cccc2n1" strictly below 2 µM?
A) true

Q) Is EC50 of "O=C(Nc1nc2cc(-c3ccc(F)c(C(F)(F)F)c3)ccc2[nH]1)c1cn2c(F)cccc2n1" strictly below 2 µM?
A) true

Q) Is EC50 of "Cc1cccc2nc(C(=O)Nc3nc4cc(-c5cccc(C(F)(F)F)c5F)ccc4[nH]3)cn12" strictly below 2 µM?
A) true

Q) Is EC50 of "O=C(Nc1nc2cc(OCc3ccc(C(F)(F)F)cc3)ccc2[nH]1)c1cn2cc(-c3ccccc3)ccc2n1" strictly below 2 µM?
A) true

Q) Is EC50 of "Cc1cccc2nc(C(=O)Nc3nc4cc(OCc5cc(F)cc(C(F)(F)F)c5)ccc4[nH]3)cn12" strictly below 2 µM?
A) true

----------
Test system: Aβ1-40 secreted from HEK293 cells stably expressing wildtype human APP695 protein (HEK-APPwt cells)
protocol: Aβ Cell Based Assay (Aβ1-40 secretion, ELISA)
settings: Homo sapiens, HEK293, 6 h, 6 hours incubation, reduction of Aβ1-40 secretion
Lab note: anything with EC50 below 2 µM is marked yes (1); values at 2 µM or higher are marked no (0).

As a guide, the following entries are already answered.
# compound, discrete_label
data = [
    ("Cc1cccc2nc(C(=O)Nc3nc4cc(/C=C/c5ccc(C(F)(F)F)cc5)ccc4[nH]3)cn12 [Example 61]", "yes (1)"),
    ("CN1CCC(c2cccc3nc(C(=O)Nc4nc5cc(-c6cccc(C(F)(F)F)c6)ccc5[nH]4)cn23)CC1 [Example 219]", "no (0)"),
]

Q) Is EC50 of Cc1cccn2cc(C(=O)Nc3nc4cc(-c5cccc(C(F)(F)F)c5)ccc4[nH]3)nc12 [Example 32] strictly below 2 µM?
A) yes (1)

Q) Is EC50 of O=C(Nc1nc2cc(-c3cccc(C(F)(F)F)c3)ccc2[nH]1)c1cn2c(CNCCCO)cccc2n1 [Example 171] strictly below 2 µM?
A) no (0)

Q) Is EC50 of CN(Cc1ccccc1)Cc1ccc2nc(C(=O)Nc3nc4cc(-c5cccc(C(F)(F)F)c5)ccc4[nH]3)cn2c1 [Example 185] strictly below 2 µM?
A) yes (1)

Q) Is EC50 of Cc1cccn2cc(C(=O)Nc3nc4cc(-c5ccc(Cl)cc5)ccc4[nH]3)nc12 [Example 69] strictly below 2 µM?
A) no (0)

Q) Is EC50 of Cc1cccn2cc(C(=O)Nc3nc4cc(-c5cc(C(F)(F)F)ccc5F)ccc4[nH]3)nc12 [Example 71] strictly below 2 µM?
A) yes (1)
